Just for reference, ChEMBL document CHEMBL3120163 is where these values come from.

Molecular target: Nitric oxide synthase, inducible (Mus musculus, UniProt P29477)
Sequence (P29477 whole entry): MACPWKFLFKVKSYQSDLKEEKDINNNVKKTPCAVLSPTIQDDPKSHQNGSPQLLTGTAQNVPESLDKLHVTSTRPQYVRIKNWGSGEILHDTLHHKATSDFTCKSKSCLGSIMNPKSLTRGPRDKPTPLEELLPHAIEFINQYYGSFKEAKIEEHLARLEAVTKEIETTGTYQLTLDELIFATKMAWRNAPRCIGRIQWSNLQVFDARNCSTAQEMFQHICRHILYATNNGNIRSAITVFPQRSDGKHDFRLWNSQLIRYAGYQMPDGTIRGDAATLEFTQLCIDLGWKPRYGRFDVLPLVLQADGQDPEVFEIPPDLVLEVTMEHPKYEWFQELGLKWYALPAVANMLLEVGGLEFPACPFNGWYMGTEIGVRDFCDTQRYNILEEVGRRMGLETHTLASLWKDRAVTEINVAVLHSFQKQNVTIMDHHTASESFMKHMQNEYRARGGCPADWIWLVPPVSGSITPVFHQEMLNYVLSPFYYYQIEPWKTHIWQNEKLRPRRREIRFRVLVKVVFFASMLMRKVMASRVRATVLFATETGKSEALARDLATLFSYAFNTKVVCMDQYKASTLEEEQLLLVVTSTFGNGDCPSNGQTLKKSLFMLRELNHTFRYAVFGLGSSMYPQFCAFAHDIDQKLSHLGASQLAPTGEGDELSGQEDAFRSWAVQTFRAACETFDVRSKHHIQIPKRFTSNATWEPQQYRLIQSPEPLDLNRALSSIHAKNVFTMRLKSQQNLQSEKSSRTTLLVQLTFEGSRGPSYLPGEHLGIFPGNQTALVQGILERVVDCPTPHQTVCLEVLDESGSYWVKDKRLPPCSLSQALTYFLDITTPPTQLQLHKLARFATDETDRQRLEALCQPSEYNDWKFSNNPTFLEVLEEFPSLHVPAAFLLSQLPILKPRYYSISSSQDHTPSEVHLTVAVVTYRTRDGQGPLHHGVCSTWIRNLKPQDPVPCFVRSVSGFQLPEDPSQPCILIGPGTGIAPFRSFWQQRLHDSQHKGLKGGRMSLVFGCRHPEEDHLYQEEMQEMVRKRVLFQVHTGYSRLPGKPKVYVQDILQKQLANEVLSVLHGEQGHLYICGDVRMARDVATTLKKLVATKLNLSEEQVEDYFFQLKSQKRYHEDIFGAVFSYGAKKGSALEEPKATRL
Assay: Inhibition of iNOS in mouse RAW264.7 cells assessed as LPS-induced nitric oxide production treated for 30 mins followed by LPS challenge measured after 24 hrs by Griess reagent method
Format: cell-based
Details: read-out: IC50
assay readout: IC50 (nM)
Report the figure in nM without appending any unit label.

So, C=C1C(=O)O[C@@H]2C3O[C@]3(C)CC/C=C(\C)CC[C@@H]12 (stereo partly specified) ? Its IC50 was 1050
